- target: IDH1 R132H (Homo sapiens, UniProt O75874, R132H)
- Sequence (O75874 whole entry R132H): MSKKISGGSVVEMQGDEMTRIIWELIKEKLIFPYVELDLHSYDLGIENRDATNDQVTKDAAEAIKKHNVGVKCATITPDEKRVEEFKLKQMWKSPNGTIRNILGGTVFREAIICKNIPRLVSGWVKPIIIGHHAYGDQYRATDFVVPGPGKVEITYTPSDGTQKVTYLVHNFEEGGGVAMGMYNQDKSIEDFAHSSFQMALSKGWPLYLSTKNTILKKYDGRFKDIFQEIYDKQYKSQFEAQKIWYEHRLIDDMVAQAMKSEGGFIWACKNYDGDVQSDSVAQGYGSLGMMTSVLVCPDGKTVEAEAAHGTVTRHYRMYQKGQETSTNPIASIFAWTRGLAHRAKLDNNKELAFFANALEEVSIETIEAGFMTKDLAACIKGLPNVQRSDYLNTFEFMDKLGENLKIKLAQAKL
- measurement-protocol: Assay for IDH1 R132H inhibitors (NADPH/aKG, resazurin detection)
- Type: biochemical
- setup-conditions: enzyme assay of Example 12; read-out: IDH1R132H IC50
- Experimental: Assays were conducted in a volume of 76 μl assay buffer (150 mM NaCl, 10 mM MgCl2, 20 mM Tris pH 7.5, 0.03% bovine serum albumin) as follows in a standard 384-well plate: To 25 ul of substrate mix (8 uM NADPH, 2 mM aKG), 1 μl of test compound was added in DMSO. […] The conversion of resazurin to resorufin was detected by fluorescent spectroscopy at Ex544 Em590 c/o 590.
pIC50: −log10 of the molar value.
The compounds listed here are annotated with their pIC50.

test-smiles | observable | result
COCCC(=O)N1CCN(c2nc(C3CC3)c(-c3cccc4[nH]ccc34)cc2C#N)C[C@H]1C | pIC50 | > 6.30

Provide only the value of recorded pIC50 for `N#Cc1cc(-c2cnc3[nH]ccc3c2)c(C2CC2)nc1N1CCN(C(=O)CC(F)(F)F)[C@H](C2CC2)C1` > 6.30

Could you please provide reported pIC50 for `C[C@@H]1CN(c2nc(C3CC3)c(-c3cccc4cnccc34)cc2C#N)CCN1C(=O)CCO` ? Thanks! > 6.30

Give me measured pIC50, please, for this compound: `COCCC(=O)N1CCN(c2nc(C3CC3)c(-c3cccc(N(C)C)c3)c(C)c2C#N)C[C@H]1C` > 6.30

For `C#Cc1ccnc(Nc2cc(C#N)c(N3CCN(C(=O)COC)[C@H](C4CC4)C3)nc2C2CC2)c1` , write its pIC50. > 6.30

Indicate the recorded pIC50 value for this compound: `COCCC(=O)N1CCN(c2nc(C3CC3)c(Nc3ccnc(C(N)=O)c3)cc2C#N)C[C@H]1C` > 6.30

====

- target: IDH1 R132H (Homo sapiens, UniProt O75874, R132H)
- measurement-protocol: Assay for IDH1 R132H inhibitors (NADPH/aKG, resazurin detection)
- Assay type: biochemical
- setup-conditions: enzyme assay of Example 12; read-out: IDH1R132H IC50
pIC50: −log10 of the molar value.
Listing of recorded pIC50 by entry.

Provide measured pIC50 on IDH1 R132H (Homo sapiens, UniProt O75874, R132H) for `C=Cc1ccnc(Nc2cc(C#N)c(N3CCN(C(=O)CCCCC)[C@H](C4CC4)C3)nc2C2CC2)c1` please. > 6.30

State measured pIC50 of the compound `COCCC(=O)N1CCN(c2nc(C3CC3)c(-c3ccncc3)c(C)c2C#N)C[C@H]1C` with IDH1 R132H (Homo sapiens, UniProt O75874, R132H). 6.00 to 6.30

Specify pIC50 for `C=Cc1cnnc(-c2c(C3CC3)nc(N3CCN(C(=O)/C=C/CCO)[C@H](C4CC4)C3)c(C#N)c2C)c1` , system IDH1 R132H (Homo sapiens, UniProt O75874, R132H). > 6.30

Identify measured pIC50 obtained with IDH1 R132H (Homo sapiens, UniProt O75874, R132H) for `CCCOc1ccc(-c2c(C3CC3)nc(N3CCN(C(=O)CCOC)[C@H](C)C3)c(C#N)c2C)cc1` . 6.00 to 6.30

Using IDH1 R132H (Homo sapiens, UniProt O75874, R132H) as the test system, report measured pIC50 of `C=CC(=O)N1CCC=C(c2c(C3CC3)nc(N3CCN(C(=O)C[C@H]4CCO4)[C@H](C4CC4)C3)c(C#N)c2C)C1` . > 6.30

Give reported pIC50 for `C=Cc1cc(-c2c(C3CC3)nc(N3CCN(C(=O)CCCOC)[C@H](C(C)C)C3)c(C#N)c2C)ccn1` (IDH1 R132H (Homo sapiens, UniProt O75874, R132H)) > 6.30

====

- target: IDH1 R132H (Homo sapiens, UniProt O75874, R132H)
- measurement-protocol: Assay for IDH1 R132H inhibitors (NADPH/aKG, resazurin detection)
- Type: biochemical
- setup-conditions: enzyme assay of Example 12; read-out: IDH1R132H IC50
pIC50: −log10 of the molar value.
observable: pIC50

test-smiles | result
COCCC(=O)N1CCN(c2nc(C3CC3)c(N3CCN(C(=O)c4ccccc4)CC3)cc2C#N)C[C@H]1C | 6.00 to 6.30
N#Cc1cc(Nc2ccnc(Cl)c2)c(C2CC2)nc1N1CCN(C(=O)CCO)[C@H](C2CC2)C1 | > 6.30
COCCC(=O)N1CCN(c2nc(C(C)C)c(OCCNC(=O)OCc3ccccc3)cc2C#N)C[C@H]1C | 6.00 to 6.30
COCCC(=O)N1CCN(c2nc(C3CC3)c(-c3cccnc3F)c(C)c2C#N)C[C@H]1C | 6.00 to 6.30
COCCC(=O)N1CCN(c2nc(C3CC3)c(-c3cccc(-c4cn[nH]c4)c3)cc2C#N)C[C@H]1C | > 6.30
COCCC(=O)N1CCN(c2nc(C3CC3)c(Oc3ccnc(Cl)c3)cc2C#N)C[C@H]1C1CC1 | > 6.30
C=Cc1ccnc(Nc2cc(C#N)c(N3CCN(C(=O)CCCO)[C@H](C4CC4)C3)nc2C2CC2)c1 | > 6.30

Specify pIC50 for `C=CC(=O)N1CC=C(c2cc(C#N)c(N3CCN(C(=O)C4CC4)[C@H](C)C3)nc2C2CC2)CC1` and stop. 6.00 to 6.30

====

- target: IDH1 R132H (Homo sapiens, UniProt O75874, R132H)
- measurement-protocol: Assay for IDH1 R132H inhibitors (NADPH/aKG, resazurin detection)
- Type: biochemical
- setup-conditions: enzyme assay of Example 12; read-out: IDH1R132H IC50
Here, each record is paired with measured IC50 data.

Here are 2 molecules together with their reported answers.
molecule | result
COCCC(=O)N1CCN(c2nc(C3CC3)c(-c3ccnc(Cl)c3)cc2C#N)C[C@H]1C [Compound 401] | 500 to 1000 nM
N#Cc1cc(Oc2ccnc(Cl)c2)c(C2CC2)nc1N1CCN(C(=O)CCO)[C@H](C2CC2)C1 [Compound 694] | < 500 nM

Answer with reported IC50 of COCCC(=O)N1CCN(c2nc(C3CC3)c(-c3cccc(NC(=O)C(F)F)c3)cc2C#N)C[C@H]1C [Compound 432] 500 to 1000 nM

Each recorded value in this set is attributed to patent US9856279B2.
